Where these numbers come from: patent US20250255945A1

Examples of substances with documented Elispot [nspots/pM] follow.
system: peripheral blood mononuclear cells (PBMCs); assay: IFN-γ ELISPOT assay (ex vivo) with subject PBMCs; type: cell-based, human; conditions: Table 2, HTAPP-DACP; response in ELISPOT experiments

Known results for substances:
Substance	Elispot [nspots/pM]
29 (HRCATITHLLAAYYLVLNFNKKRQIKIWFQNRRMKWKK) [compound 29]	342,5 nspots/pM
28 (SPRQCSSWTLAAYKLAAFPTSLRQIKIWFQNRRMKWKK) [compound 28]	320,0 nspots/pM

Entry 20 (LQEFRRFQDPGRIVAIVRQIKIWFQNRRMKWKK) [compound 20] ; assay system peripheral blood mononuclear cells (PBMCs); Elispot [nspots/pM] recorded at 500,0 nspots/pM

Field Elispot [nspots/pM] (peripheral blood mononuclear cells (PBMCs)), entry 25 (RQRLALEAEKAAYEERGAAEALSVVRQIKIWFQNRRMKWKK) [compound 25] : 317,5 nspots/pM

Hey, peripheral blood mononuclear cells (PBMCs) data for 18 (KLVVVGAVGVGKSALTIRQIKIWFQNRRMKWKK) [compound 18] : Elispot [nspots/pM] came out at 447,5 nspots/pM

Test item 26 (IPDEYGNTALHYAIYNEDKLMRQIKIWFQNRRMKWKK) [compound 26] ; peripheral blood mononuclear cells (PBMCs); reported Elispot [nspots/pM] was 347,5 nspots/pM

Entry 19 (LANSPDLSHLAYYVTKVKEEDAFRQIKIWFQNRRMKWKK) [compound 19] : Elispot [nspots/pM] on peripheral blood mononuclear cells (PBMCs) = 430,5 nspots/pM

Short answer on peripheral blood mononuclear cells (PBMCs) for 22 (IKPRILGFDTPHYWLCRQIKIWFQNRRMKWKK) [compound 22] , Elispot [nspots/pM]: 477,0 nspots/pM

30 (KDYSVLYVVPGPVRFQRQIKIWFQNRRMKWKK) [compound 30] tested on peripheral blood mononuclear cells (PBMCs) gave Elispot [nspots/pM]: 234,0 nspots/pM
